- Assay Text: clinical
- Assay Setup: female, human, in vivo, inhaled or intranasal, 2 mg
- Description: In the following example, the inventors sought to compare the intranasal (“IN”) administration of leuprolide using the methods and compositions of the invention with prior art methods of administration (subcutaneous (“SQ”) and intravenous (“IV”)).
Property Name: AUC (ng·h/mL)
Numeric only. Scale: ng·h/mL

What value of AUC has been recorded for this entry: CC(=O)O.CCNC(=O)[C@@H]1CCCN1C(=O)[C@H](CCCNC(=N)N)NC(=O)[C@H](CC(C)C)NC(=O)[C@@H](CC(C)C)NC(=O)[C@H](Cc1ccc(O)cc1)NC(=O)[C@H](CO)NC(=O)[C@H](Cc1c[nH]c2ccccc12)NC(=O)[C@H](Cc1c[nH]cn1)NC(=O)[C@@H]1CCC(=O)N1 [leuprolide, acetate salt]
31

Numbers sourced from patent US20040248804A1.
